Where do the numbers come from? From ChEMBL document CHEMBL3885881.

organism: Rattus norvegicus; assay: DrugMatrix - Regimen: Daily Repeat; format: toxicity, organism-based, Sprague-Dawley; design: regimen Daily Repeat, gender Male, age 6-8 weeks; conditions: in vivo, po, 0 mg/kg, 120 h, tissue Blood, route oral GAVAGE, dose level Control, time 5 day, vehicle 100 % WATER
Readout kind: MEAN CORPUSCULAR VOLUME (fL)

# Molecule, Readout kind, Units of measure, Measured number
rows = [
    ("CC[C@H]1OC(=O)[C@H](C)[C@@H](O[C@H]2C[C@@](C)(OC)[C@@H](O)[C@H](C)O2)[C@H](C)[C@@H](O[C@@H]2O[C@H](C)C[C@H](N(C)C)[C@H]2O)[C@](C)(OC)C[C@@H](C)C(=O)[C@H](C)[C@@H](O)[C@]1(C)O", "MEAN CORPUSCULAR VOLUME", "fL", 63.73),
    ("O=C(O)c1cccnc1", "MEAN CORPUSCULAR VOLUME", "fL", 64.35),
    ("O=C(O)c1cc(=O)c2c(OCC(O)COc3cccc4oc(C(=O)O)cc(=O)c34)cccc2o1", "MEAN CORPUSCULAR VOLUME", "fL", 61.58),
    ("CCOC(N)=O", "MEAN CORPUSCULAR VOLUME", "fL", 63.05),
    ("OCCO", "MEAN CORPUSCULAR VOLUME", "fL", 63.05),
    ("Cc1c(N(C)CS(=O)(=O)[O-])c(=O)n(-c2ccccc2)n1C.[Na+] [DIPYRONE SODIUM]", "MEAN CORPUSCULAR VOLUME", "fL", 61.27),
    ("Nc1ccc(S(=O)(=O)Nc2nccs2)cc1", "MEAN CORPUSCULAR VOLUME", "fL", 63.3),
    ("O=P1(N(CCCl)CCCl)NCCCO1 (centres undefined) [CYCLOPHOSPHAMIDE ANHYDROUS]", "MEAN CORPUSCULAR VOLUME", "fL", 63.12),
    ("CCN(CC)CC#CCOC(=O)C(O)(c1ccccc1)C1CCCCC1 (centres undefined)", "MEAN CORPUSCULAR VOLUME", "fL", 59.52),
]

---

species: Rattus norvegicus; experiment: DrugMatrix - Regimen: Daily Repeat; assay type: toxicity, organism-based, Sprague-Dawley; set-up: regimen Daily Repeat, gender Male, age 6-8 weeks; settings: in vivo, po, 0 mg/kg, 120 h, tissue Plasma, route oral GAVAGE, dose level Control, time 5 day, vehicle 100 % WATER
Lab note: cut-off is 10 u/L. Strictly less in LIPASE is class 1. Exactly 10 u/L or more is class 0.

# Molecule, Discrete label
rows = [
    ("CCCc1nn(C)c2c(=O)[nH]c(-c3cc(S(=O)(=O)N4CCN(C)CC4)ccc3OCC)nc12", "class 1"),
    ("CC(C)(C)NC[C@H](O)COc1nsnc1N1CCOCC1", "class 1"),
    ("CC[C@H]1OC(=O)[C@H](C)[C@@H](O[C@H]2C[C@@](C)(OC)[C@@H](O)[C@H](C)O2)[C@H](C)[C@@H](O[C@@H]2O[C@H](C)C[C@H](N(C)C)[C@H]2O)[C@](C)(O)C[C@@H](C)CN(C)[C@H](C)[C@@H](O)[C@]1(C)O", "class 0"),
    ("CCCCCCCCCCCCCCCC[n+]1ccccc1.[Br-]", "class 0"),
    ("CC[C@H]1OC(=O)[C@H](C)[C@@H](O[C@H]2C[C@@](C)(OC)[C@@H](O)[C@H](C)O2)[C@H](C)[C@@H](O[C@@H]2O[C@H](C)C[C@H](N(C)C)[C@H]2O)[C@](C)(OC)C[C@@H](C)C(=O)[C@H](C)[C@@H](O)[C@]1(C)O", "class 0"),
    ("Cc1c(N(C)CS(=O)(=O)[O-])c(=O)n(-c2ccccc2)n1C.[Na+] [DIPYRONE SODIUM]", "class 1"),
    ("O=P1(N(CCCl)CCCl)NCCCO1 (centres undefined) [CYCLOPHOSPHAMIDE ANHYDROUS]", "class 0"),
    ("OCCO", "class 1"),
    ("CN1C2CCCC1CC(NC(=O)c1nn(C)c3ccccc13)C2 (centres undefined)", "class 1"),
    ("CNS(=O)(=O)Cc1ccc2[nH]cc(CCN(C)C)c2c1", "class 0"),
    ("Nc1ccc(S(=O)(=O)Nc2nccs2)cc1", "class 1"),
    ("CCN(CC)CC#CCOC(=O)C(O)(c1ccccc1)C1CCCCC1 (centres undefined)", "class 1"),
]
